- TARGET_OR_TEST_SYSTEM: NOPLight (human (NOPR part))
- TEST_METHOD_NOTES: other fluorescence titration; apparent; NOPLight on AAV-transduced cultured rat cortical neurons in HBSS, N/OFQ applied manually during confocal imaging (20x), normalised ΔF/F0 fitted with a three-parameter Hill equation
READOUT_LABEL: EC50

# input binder: FGGFTGARKSARKLANQ [nociceptin/orphanin-FQ peptide] ; wanted: its EC50
42.8 nM
